- assay.target: CDK9/CycT1 (Homo sapiens, UniProt P50750)
- Construct: Recombinant full-length His-tagged human CDK9 and CycT1; His; purchased Invitrogen PV4131; host or cells: insect cells
- Sequence (P50750 whole entry): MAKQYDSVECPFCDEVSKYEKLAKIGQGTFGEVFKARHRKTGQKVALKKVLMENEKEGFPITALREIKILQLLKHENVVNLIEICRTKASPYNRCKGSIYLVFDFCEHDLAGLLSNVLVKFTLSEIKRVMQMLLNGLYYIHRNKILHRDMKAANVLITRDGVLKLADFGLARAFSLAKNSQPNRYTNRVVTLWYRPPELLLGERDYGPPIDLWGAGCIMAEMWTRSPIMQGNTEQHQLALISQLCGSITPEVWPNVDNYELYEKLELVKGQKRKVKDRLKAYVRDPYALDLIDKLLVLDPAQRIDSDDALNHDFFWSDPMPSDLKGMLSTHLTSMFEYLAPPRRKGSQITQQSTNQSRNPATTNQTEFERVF
- Sequence (O60563 whole entry partner): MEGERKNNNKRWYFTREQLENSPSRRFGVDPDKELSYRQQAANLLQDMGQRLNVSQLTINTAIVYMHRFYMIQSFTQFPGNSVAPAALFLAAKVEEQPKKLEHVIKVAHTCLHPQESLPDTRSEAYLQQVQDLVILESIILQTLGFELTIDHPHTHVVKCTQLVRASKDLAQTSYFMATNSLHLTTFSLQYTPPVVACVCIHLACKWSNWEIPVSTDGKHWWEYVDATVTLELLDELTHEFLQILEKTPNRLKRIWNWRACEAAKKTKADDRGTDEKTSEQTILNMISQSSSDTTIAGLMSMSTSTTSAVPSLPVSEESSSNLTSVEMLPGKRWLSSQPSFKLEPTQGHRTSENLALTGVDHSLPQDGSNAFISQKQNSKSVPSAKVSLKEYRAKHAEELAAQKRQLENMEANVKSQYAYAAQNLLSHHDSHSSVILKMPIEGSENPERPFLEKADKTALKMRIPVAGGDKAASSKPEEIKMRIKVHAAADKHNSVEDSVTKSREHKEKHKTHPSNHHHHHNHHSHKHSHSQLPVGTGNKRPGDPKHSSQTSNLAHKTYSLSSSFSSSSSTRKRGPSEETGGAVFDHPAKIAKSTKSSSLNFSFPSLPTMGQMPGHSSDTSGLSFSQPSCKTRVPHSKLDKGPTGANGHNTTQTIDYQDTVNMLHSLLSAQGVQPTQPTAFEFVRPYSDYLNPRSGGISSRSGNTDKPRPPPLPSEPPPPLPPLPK
- assay.text: CDK9/CycT1 kinase assay (Method 1a, TR-FRET)
- Assay type: biochemical
- condition.label: Methods 1a. and 2a., 10 μM ATP
Selectivity CDK9 over CDK2: IC50 (CDK2)/IC50 (CDK9) vs 20: at or above is true (1), below is false (0).

[[record]]
compound = "CS(=O)(Cc1cccc(Nc2ncc(F)c(-c3ccc(F)c4ccoc34)n2)c1)=NC#N (racemic) [Example 1]"
class_label = "true (1)"

[[record]]
compound = "CS(=O)(Cc1cc(F)cc(Nc2ncc(F)c(-c3ccc(F)c4ccoc34)n2)c1)=NC#N (racemic) [Example 7]"
class_label = "false (0)"

[[record]]
compound = "Cc1cc(CS(C)(=N)=O)cc(Nc2ncc(F)c(-c3ccc(F)c4ccoc34)n2)c1 (racemic)"
class_label = "false (0)"

[[record]]
compound = "Cc1cc(CS(C)(=O)=NC#N)cc(Nc2ncc(F)c(-c3ccc(F)c4ccoc34)n2)c1 (single isomer, unassigned) [Example 15]"
class_label = "true (1)"

[[record]]
compound = "CS(=N)(=O)Cc1cccc(Nc2ncc(F)c(-c3ccc(F)c4ccoc34)n2)c1 (racemic) [Example 4]"
class_label = "true (1)"

[[record]]
compound = "Cc1cc(CS(C)(=O)=NC#N)cc(Nc2ncc(F)c(-c3ccc(F)c4ccoc34)n2)c1 (single isomer, unassigned) [Example 14]"
class_label = "false (0)"

[[record]]
compound = "CS(=O)(Cc1cc(F)cc(Nc2ncc(F)c(-c3ccc(F)c4ccoc34)n2)c1)=NC#N (single isomer, unassigned) [Example 9]"
class_label = "true (1)"

[[record]]
compound = "CS(=O)(Cc1cc(Nc2ncc(F)c(-c3ccc(F)c4ccoc34)n2)cc(S(F)(F)(F)(F)F)c1)=NC#N (racemic)"
class_label = "true (1)"

[[record]]
compound = "CS(=O)(Cc1cccc(Nc2ncc(F)c(-c3ccc(F)c4ccoc34)n2)c1)=NC#N (single isomer, unassigned) [Example 2]"
class_label = "false (0)"


* * *

- assay.target: CDK9/CycT1 (Homo sapiens)
- Construct: Recombinant full-length His-tagged human CDK9 and CycT1; His; purchased Invitrogen PV4131; host or cells: insect cells
- assay.text: CDK9/CycT1 high ATP kinase assay (Method 1b, TR-FRET)
- Format: biochemical
- condition.label: Methods 1b. and 2b., 2 mM ATP
measured.parameter: Selectivity high ATP CDK9 over high ATP CDK2: IC50 (high ATP CDK2)/IC50 (high ATP CDK9)

[[record]]
compound = "CS(=N)(=O)Cc1cc(F)cc(Nc2ncc(F)c(-c3ccc(F)c4ccoc34)n2)c1 (racemic) [Example 10]"
assay_target = "CDK9/CycT1 (Homo sapiens)"
measured = 563

[[record]]
compound = "Cc1cc(CS(C)(=O)=NC#N)cc(Nc2ncc(F)c(-c3ccc(F)c4ccoc34)n2)c1 (single isomer, unassigned) [Example 15]"
assay_target = "CDK9/CycT1 (Homo sapiens)"
measured = 522

[[record]]
compound = "CS(=O)(Cc1cc(F)cc(Nc2ncc(F)c(-c3ccc(F)c4ccoc34)n2)c1)=NC#N (single isomer, unassigned) [Example 8]"
assay_target = "CDK9/CycT1 (Homo sapiens)"
measured = 812

